# measured_on: T1, Full-length cynomolgus monkey TIGIT on CHO-K1 cells (CHO-K1 cynomolgus monkey TIGIT) (cynomolgus monkey)
# T1 construct: NCBI XP_015300911.1
# experimental_details: cell binding, CHO-K1 cynomolgus monkey TIGIT
readout: pEC50
Answers are plain numbers, as −log10 of the molar value.

TIGIT-002-H3L3 (antibody, V domains shown, Humanized anti-TIGIT antibody) VH: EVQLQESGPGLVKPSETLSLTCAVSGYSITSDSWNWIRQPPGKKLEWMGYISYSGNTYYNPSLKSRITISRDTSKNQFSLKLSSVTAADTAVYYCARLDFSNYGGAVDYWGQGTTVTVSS VL: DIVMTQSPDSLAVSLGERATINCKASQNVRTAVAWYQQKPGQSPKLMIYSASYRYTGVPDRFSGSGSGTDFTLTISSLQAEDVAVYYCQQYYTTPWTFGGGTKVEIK :: 10.04

Now take the following binder into account.
TIGIT-070-H2L1 (antibody, V domains shown, Humanized anti-TIGIT antibody) VH: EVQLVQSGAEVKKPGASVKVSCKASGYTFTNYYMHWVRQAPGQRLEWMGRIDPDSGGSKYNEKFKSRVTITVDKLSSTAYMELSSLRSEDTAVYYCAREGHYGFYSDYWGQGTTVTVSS VL: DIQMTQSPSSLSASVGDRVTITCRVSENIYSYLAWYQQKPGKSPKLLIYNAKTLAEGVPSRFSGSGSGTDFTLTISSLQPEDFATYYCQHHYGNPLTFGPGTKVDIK yielded pEC50 of 10.10
